Biological target: T1, human CD3 E&D complex protein (Sino Biological Inc., CT026H0323H) (human, UniProt P07766 23-126; P04234 22-105)
T1 construct: bought heterodimer; also called human CD3 protein (CT026H0323H)
T1 sequence (P07766 23-126, chain 1 of 2): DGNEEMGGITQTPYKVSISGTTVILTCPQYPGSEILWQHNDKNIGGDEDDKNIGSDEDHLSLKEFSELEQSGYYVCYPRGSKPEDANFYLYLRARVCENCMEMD
T1 sequence (P04234 22-105, chain 2 of 2): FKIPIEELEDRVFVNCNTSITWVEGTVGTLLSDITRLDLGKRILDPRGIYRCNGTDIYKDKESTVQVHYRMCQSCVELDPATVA
Test: BLI, antibody on sensor
Recorded measurements of Kd, one per entry
Number only, in nM; omit the unit.

Below, each entry is followed by its recorded Kd result.
| BINDER | MEASUREMENT_LABEL | MEASURED_VALUE |
| --- | --- | --- |
| hzsp34.89 (antibody, human IgG1, lambda, L234A L235A, V domains shown, CDR mutant of hzsp34.24; IgG1 L234A L235A, lambda) VH: EVQLVESGGGLVQPGGSLKLSCAASGFTFNTYAMNWVRQASGKGLEWVGRIRSKYNNYATYYADSVKDRFTISRDDSKSTLYLQMNSLKTEDTAVYYCARHGNAGQSYVSWFAYWGQGTTVTVSS VL: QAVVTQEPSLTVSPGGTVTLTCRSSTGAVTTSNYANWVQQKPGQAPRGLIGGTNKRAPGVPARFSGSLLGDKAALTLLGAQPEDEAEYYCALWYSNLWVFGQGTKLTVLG | Kd | 6.62 |
| hzsp34.97 (antibody, human IgG1, lambda, L234A L235A, V domains shown, CDR mutant of hzsp34.24; IgG1 L234A L235A, lambda) VH: EVQLVESGGGLVQPGGSLKLSCAASGFTFNTYAMNWVRQASGKGLEWVGRIRSKAGGYATYYADSVKDRFTISRDDSKSTLYLQMNSLKTEDTAVYYCARHGNFGQSYVSWFAYWGQGTTVTVSS VL: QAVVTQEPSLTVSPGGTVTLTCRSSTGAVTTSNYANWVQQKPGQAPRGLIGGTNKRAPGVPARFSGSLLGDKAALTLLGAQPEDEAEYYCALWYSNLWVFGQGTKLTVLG | Kd | 5.62 |
| hzsp34.83 (antibody, human IgG1, lambda, L234A L235A, V domains shown, CDR mutant of hzsp34.24; IgG1 L234A L235A, lambda) VH: EVQLVESGGGLVQPGGSLKLSCAASGFTFNTYAMNWVRQASGKGLEWVGRIRSKANNYATYYADSVKDRFTISRDDSKSTLYLQMNSLKTEDTAVYYCARHGNFGQSYVSWFAYWGQGTTVTVSS VL: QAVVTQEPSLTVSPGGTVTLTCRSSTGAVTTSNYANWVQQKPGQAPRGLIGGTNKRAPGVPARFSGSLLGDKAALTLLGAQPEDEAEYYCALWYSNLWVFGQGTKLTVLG | Kd | 0.928 |

q: Can you look up the measured Kd of hzsp34.111 (antibody, human IgG1, lambda, L234A L235A, V domains shown, CDR mutant of hzsp34.24; IgG1 L234A L235A, lambda) VH: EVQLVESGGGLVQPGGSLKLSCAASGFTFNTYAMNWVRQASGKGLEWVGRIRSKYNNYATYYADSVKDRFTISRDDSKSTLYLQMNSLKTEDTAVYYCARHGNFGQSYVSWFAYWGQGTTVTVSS VL: QAVVTQEPSLTVSPGGTVTLTCRSSTGAVGGSNYANWVQQKPGQAPRGLIGGTNKRAPGVPARFSGSLLGDKAALTLLGAQPEDEAEYYCALWYSNLWVFGQGTKLTVLG for me?
a: 1.94

q: Look up Kd: hzsp34.78 (antibody, human IgG1, lambda, L234A L235A, V domains shown, CDR mutant of hzsp34.24; IgG1 L234A L235A, lambda) VH: EVQLVESGGGLVQPGGSLKLSCAASGFTFGTYAMNWVRQASGKGLEWVGRIRSKYNNYATYYADSVKDRFTISRDDSKSTLYLQMNSLKTEDTAVYYCARHGNFGQSYVSWFAYWGQGTTVTVSS VL: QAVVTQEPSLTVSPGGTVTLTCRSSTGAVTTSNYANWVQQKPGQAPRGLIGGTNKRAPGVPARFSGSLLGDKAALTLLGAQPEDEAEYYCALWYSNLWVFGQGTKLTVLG
a: 1.35
